Assay: chemical genetic growth profiling, strain panel (AID 1159580);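 further: tested at 20 µM; growth read once vehicle control cultures reached saturation at 30 °C; 1 = growth at the plate median or of vehicle wells; lower values mean less growth of the strain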
Settings: S. cerevisiae deletion strains, growth OD, strain wtn01, active compounds read low
About 2,000 (36%) of roughly 5,500 compounds were called active. Not shown: some 18% with an inconclusive outcome. Some of the results follow.
quantity-measured: normalized growth
One number for each entry.

Here's what some known entries look like.
compound	normalized growth
COc1ccc2c(=O)cc(-c3ccccc3OC)oc2c1	0.802
Cc1cc(=O)c2c(O)c3c(cc2o1)OCC(C)CC3 (centres undefined)	0.897
Cc1cc(=O)c2c(o1)-c1c(cc(O)c(O)c1C(=O)O)OC2	1.02
OC1C(O)C(O)C(O)C(O)C1O (centres undefined)	0.993
Cn1nnnc1SCC1=C(C(=O)O)N2C(=O)C(NC(=O)C(O)c3ccccc3)C2SC1 (centres undefined)	1
O=c1[nH]c2cc(Cl)c(Cl)cc2[nH]c1=O	1.02

Below are some compounds; for each one, tell me its normalized growth.
1. C#CCOS(=O)OC1CCCCC1Oc1ccc(C(C)(C)C)cc1 (centres undefined)
2. O=C(O)c1nc2cc(Cl)c(Cl)cc2[nH]c1=O

1: 0.991; 2: 1.01

Below are some compounds; for each one, tell me its normalized growth.
1. CC(=O)O[C@@H]1CC2C(C)(C)[C@H](O)C[C@H](O)[C@]2(C)C2CC[C@@]3(C)[C@H](c4ccoc4)OC(=O)[C@H]4O[C@]43[C@@]21C (some centres undefined)
2. CCCCCCCCCCCCCCCC[n+]1ccccc1
3. CC[N+]1(C)CCCC(OC(=O)C(O)(c2ccccc2)c2ccccc2)C1 (centres undefined)

1. 0.949
2. 0.061
3. 1.01

Below are some compounds; for each one, tell me its normalized growth.
1. CN(C)CC/C=C1/c2ccccc2COc2ccccc21
2. C=CCc1ccccc1OCC(O)CNC(C)C (centres undefined)
3. CC(=O)O[C@H]1C[C@H](O[C@H]2[C@@H](O)C[C@H](O[C@H]3[C@@H](O)C[C@H](O[C@H]4CC[C@@]5(C)C(CCC6C5C[C@@H](O)[C@]5(C)[C@@H](C7=CC(=O)OC7)CC[C@]65O)C4)O[C@@H]3C)O[C@@H]2C)O[C@H](C)[C@H]1O[C@@H]1O[C@H](CO)[C@@H](O)[C@H](O)[C@H]1O (some centres undefined)

1.03
1.01
1.01

Below are some compounds; for each one, tell me its normalized growth.
1. COc1ccc2cc3[n+](cc2c1OC)CCc1cc2c(cc1-3)OCO2
2. COc1cc2cc[n+]3cc4c(OC)c(OC)ccc4cc3c2cc1OC
3. Nc1nc(N)c2nc(-c3ccccc3)c(N)nc2n1
4. COc1c2c(cc3c1OCO3)CC[N+](C)=C2
5. O=C(O)/C=C(\CC(=O)O)C(=O)O

1: 0.305; 2: 0.971; 3: 1.01; 4: 1; 5: 0.954

Data origin, for the record: PubChem BioAssay AID1159580
